Test system: Escherichia coli (ATCC 35218)
Test: microbe, parasite or virus in culture
Conditions: ATCC 35218
Square brackets hold non-standard residues; d marks the D form. Peptide text beside a SMILES is read from it. 12Ado = NCCCCCCCCCCCC(=O)O
quantityName: MIC E.c. (µM)
Numbers only, in µM.

compound	quantityName	obsValue
NCCCC[C@@H]1NC(=O)CCCCCCCCCCCNC(=O)[C@H](CCCCN)NC(=O)CCCCCCCCCCCNC(=O)[C@H](CCCCN)NC(=O)CCCCCCCCCCCNC(=O)[C@H](CCCCN)NC(=O)[C@H](CCCCN)NC(=O)CCCCCCCCCCCNC(=O)[C@H](CCCCN)NC(=O)CCCCCCCCCCCNC1=O [Polymer 2, Cyclic-K(NC12K)5] (cyclo(K[12Ado]K[12Ado]K[12Ado]K[12Ado]K[12Ado]K))	MIC E.c.	12.5
CCCCCCCCCCCC(=O)NCCCCC(N)C(=O)NCCCCCCCCCCCC(=O)NCCCCC(N)C(N)=O (centres unmarked) [Polymer 13, C12K(ε)NC12K(ε)NH2]	MIC E.c.	12.5
NCCCC[C@@H]1NC(=O)CCCCCCCCCCCNC(=O)[C@H](CCCCN)NC(=O)[C@H](CCCCN)NC(=O)CCCCCCCCCCCNC(=O)[C@H](CCCCN)NC(=O)[C@H](CCCCN)NC(=O)CCCCCCCCCCCNC(=O)[C@H](CCCCN)NC1=O [Polymer 8, Cyclic-(KNC12K)3] (cyclo(K[12Ado]KK[12Ado]KK[12Ado]K))	MIC E.c.	25

Let us examine a further case.
Determine from records and report MIC E.c. for NCCCC[C@@H]1NC(=O)CCCCCCCCCCCNC(=O)[C@H](CCCCN)NC(=O)[C@H](CCCCN)NC(=O)CCCCCCCCCCCNC(=O)[C@H](CCCCN)NC(=O)[C@H](CCCCN)NC(=O)CCCCCCCCCCCNC1=O [Polymer 10, Cyclic-NC12K(KNC12K)2] (cyclo([12Ado]KK[12Ado]KK[12Ado]K))
12.5

* * *

Hi there, I'd appreciate the recorded MIC P.a. for every entry that follows.
Tested on: Pseudomonas aeruginosa (ATCC 9027)
Assay: microbe, parasite or virus in culture
Settings: ATCC 9027
Procedure: Minimal inhibitory concentrations (MICs) were determined by microdilution susceptibility testing in 96-well plates using inocula of 10^6 bacteria per ml. Cell populations were evaluated by optical density measurements at 600 nm and were calibrated against a set of standards. […] Alternatively, MICs were determined using the microbroth dilution assay recommended by the Clinical and Laboratory Standards Institute (CLSI) using two-fold serial dilutions in cation-adjusted Mueller-Hinton broth (CAMHB). […]
Square brackets hold non-standard residues; d marks the D form. Peptide text beside a SMILES is read from it. 12Ado = NCCCCCCCCCCCC(=O)O

Working through the 4 molecules below one at a time, give MIC P.a. for each.
1. CCCCCCCCCCCC(=O)NCCCCC(N)C(=O)NCCCCCCCCCCCC(=O)NCCCCC(N)C(N)=O (stereo not shown) [Polymer 13, C12K(ε)NC12K(ε)NH2]
2. NCCCC[C@@H]1NC(=O)CCCCCCCCCCCNC(=O)[C@H](CCCCN)NC(=O)[C@H](CCCCN)NC(=O)CCCCCCCCCCCNC(=O)[C@H](CCCCN)NC(=O)[C@H](CCCCN)NC(=O)CCCCCCCCCCCNC1=O [Polymer 10, Cyclic-NC12K(KNC12K)2] (cyclo([12Ado]KK[12Ado]KK[12Ado]K))
3. NCCCCC1NC(=O)CCCCCCCCCCCNC(=O)C(CCCCN)NC(=O)C(CCCCN)NC(=O)CCCCCCCCCCCNC(=O)C(CCCCN)NC1=O (stereo not shown) [Polymer 7, Cyclic-(KNC12K)2] (cyclo([12Ado]KK[12Ado]KK); configuration not given here)
4. NCCCCC1NC(=O)CCCCCCCCCCCNC(=O)C(CCCCN)NC(=O)CCCCCCCCCCCNC1=O (stereo not shown) [Polymer 3, Cyclic-(NC12K)2]

1: >50 µM; 2: 12.5 µM; 3: 25 µM; 4: >50 µM

Value source: patent US8470770B2
